TARGET: Histone-lysine N-methyltransferase NSD2 (Homo sapiens) (UniProt O96028)
Sequence (O96028 whole entry, looked up): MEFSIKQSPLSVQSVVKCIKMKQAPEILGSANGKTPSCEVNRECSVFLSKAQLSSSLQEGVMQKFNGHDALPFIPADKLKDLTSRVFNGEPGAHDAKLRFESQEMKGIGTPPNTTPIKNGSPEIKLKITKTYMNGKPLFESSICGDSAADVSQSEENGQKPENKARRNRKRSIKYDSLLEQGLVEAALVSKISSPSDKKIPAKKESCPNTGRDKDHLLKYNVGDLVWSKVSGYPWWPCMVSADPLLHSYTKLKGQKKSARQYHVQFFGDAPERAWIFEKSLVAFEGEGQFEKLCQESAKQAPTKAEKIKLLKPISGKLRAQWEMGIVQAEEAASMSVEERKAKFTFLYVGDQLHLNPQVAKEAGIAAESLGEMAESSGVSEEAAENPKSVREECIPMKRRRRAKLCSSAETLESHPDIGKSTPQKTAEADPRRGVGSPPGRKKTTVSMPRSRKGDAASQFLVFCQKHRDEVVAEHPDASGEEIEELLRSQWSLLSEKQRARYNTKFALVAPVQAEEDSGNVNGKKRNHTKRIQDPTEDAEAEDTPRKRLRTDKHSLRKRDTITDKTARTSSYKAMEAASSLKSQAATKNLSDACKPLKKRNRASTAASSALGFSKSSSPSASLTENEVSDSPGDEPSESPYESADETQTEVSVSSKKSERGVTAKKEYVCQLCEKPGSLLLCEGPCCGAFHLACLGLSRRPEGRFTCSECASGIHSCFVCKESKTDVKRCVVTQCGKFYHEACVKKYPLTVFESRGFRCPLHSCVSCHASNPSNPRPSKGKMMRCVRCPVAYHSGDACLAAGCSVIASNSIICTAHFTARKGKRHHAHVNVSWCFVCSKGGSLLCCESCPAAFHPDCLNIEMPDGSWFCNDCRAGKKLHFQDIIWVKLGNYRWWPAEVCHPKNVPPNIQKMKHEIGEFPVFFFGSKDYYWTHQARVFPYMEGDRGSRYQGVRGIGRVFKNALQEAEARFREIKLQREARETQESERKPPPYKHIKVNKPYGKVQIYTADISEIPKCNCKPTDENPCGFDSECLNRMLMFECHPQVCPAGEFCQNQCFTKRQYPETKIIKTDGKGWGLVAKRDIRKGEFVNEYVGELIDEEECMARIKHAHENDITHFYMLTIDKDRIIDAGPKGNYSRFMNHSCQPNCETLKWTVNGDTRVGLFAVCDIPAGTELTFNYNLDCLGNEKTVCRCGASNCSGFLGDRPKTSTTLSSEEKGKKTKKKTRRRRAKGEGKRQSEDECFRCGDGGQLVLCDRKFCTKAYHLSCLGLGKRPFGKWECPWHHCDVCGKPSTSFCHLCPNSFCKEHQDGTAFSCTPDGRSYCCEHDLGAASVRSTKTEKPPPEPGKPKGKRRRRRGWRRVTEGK
ASSAY_REMARKS: NSD2 histone methyltransferase activity blockers – biochemical, plate reader, single point, primary screen (AID 624260);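 note: inhibitors reduce the monomethyl H3K36 fluorescence signal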
CONDITION_PARAMETERS: NSD2-SET H3K36me1 DELFIA fluorescence, at 12.5 µM, hits give high values
The whole screen tested about 44,000 compounds, of which about 30 (0.07%) were called active. Not shown: some 1% with an inconclusive outcome. The full list was thinned out, with actives kept by preference.
ENDPOINT_NAME: inhibition (%)

>  <SMILES_CODE>
C/C=C/c1cnc2c(c1)C(=O)N([C@@H](C)CO)C[C@@H](C)[C@H](CN(C)Cc1ccccc1)O2

>  <ENDPOINT_NAME>
inhibition

>  <VALUE_MEASURED>
1.34

$$$$
>  <SMILES_CODE>
C[C@@H]1CN([C@@H](C)CO)C(=O)c2cc(C3=CCCC3)cnc2O[C@@H]1CN(C)C(=O)Cc1ccncc1

>  <ENDPOINT_NAME>
inhibition

>  <VALUE_MEASURED>
-7.1

$$$$
>  <SMILES_CODE>
C[C@@H]1CN([C@@H](C)CO)S(=O)(=O)c2ccc(Br)cc2O[C@H]1CN(C)S(=O)(=O)c1ccccc1

>  <ENDPOINT_NAME>
inhibition

>  <VALUE_MEASURED>
0.606

$$$$
>  <SMILES_CODE>
COc1ccc(S(=O)(=O)N[C@@H]2C=C[C@@H](CC(=O)N3CCc4ccccc4C3)O[C@@H]2CO)cc1

>  <ENDPOINT_NAME>
inhibition

>  <VALUE_MEASURED>
3.25

$$$$
>  <SMILES_CODE>
C[C@H](CO)N1C[C@H](C)[C@@H](CN(C)CC2CC2)Oc2ccc(NC(=O)CCCN(C)C)cc2CC1=O

>  <ENDPOINT_NAME>
inhibition

>  <VALUE_MEASURED>
3.07

$$$$

Hey, just so you know, these numbers are from PubChem BioAssay AID624260.
